Molecular target: basic fibroblast growth factor (bFGF, FGF-2) (UniProt P09038 P09038:135-288)
Sequence (P09038 135-288, one chain of several): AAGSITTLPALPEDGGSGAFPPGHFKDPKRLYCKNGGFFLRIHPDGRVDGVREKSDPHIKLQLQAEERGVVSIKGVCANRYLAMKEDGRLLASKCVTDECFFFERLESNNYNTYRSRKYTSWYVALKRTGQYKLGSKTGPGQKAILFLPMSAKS
Assay: filter; biphasic, Kd1 (mole fraction 0.5); Kd2 = 270 nM
Details: tags: Bachem California; 18 kDa, 154 amino acids
Protocol: This affinity screening allowed identification of those ligands with highest affinity for bFGF. Binding of a group of these ligands was analyzed over a range of bFGF concentrations (FIG. 8) and their dissociation constants (Kd's) were determined as described (Jellinek et al. (1993) Proc. Natl. Acad. Sci. U.S.A. 90:11227–11231) (Table IX). RNA concentrations were determined from their absorbance reading at […] (and were typically <100 pM). […]
READOUT_NAME: Kd (nM)
The reply should contain only the number, in nM.

## Input Request the reported Kd associated with GGUGUGUGGAAGACAGCGGGUGGUUC (ssRNA, 2'-NH2 at all C and U) [2'-NH2 21A-t]
## Output 0.1
